- assay details: Vorinostat serum pharmacokinetics
- Assay type: in vivo, human
- test settings: human, serum, po, 200 mg, t1/2, vorinostat 200 mg PO BID, Day 1, serum, mean
metric name: half-life (h)
// note: answer is a bare numeric in h

Need half-life of O=C(CCCCCCC(=O)Nc1ccccc1)NO [vorinostat, Suberoylanilide Hydroxamic Acid] , thanks.
1.2

----------
- assay details: Vorinostat serum pharmacokinetics
- Type: in vivo, human
- test settings: human, serum, po, 100 mg, t1/2, vorinostat 100 mg PO BID, Day 1, serum, mean
metric name: half-life (h)
// note: answer is a bare numeric in h

Need half-life of O=C(CCCCCCC(=O)Nc1ccccc1)NO [vorinostat, Suberoylanilide Hydroxamic Acid] , thanks.
1.5

----------
- assay details: Vorinostat serum pharmacokinetics
- Type: in vivo, human
- test settings: human, serum, po, 300 mg, Cmax, vorinostat 300 mg PO BID, Day 5 (with FOLFOX), serum, mean
metric name: Cmax
Record the result as number plus unit.

Need Cmax of O=C(CCCCCCC(=O)Nc1ccccc1)NO [vorinostat, Suberoylanilide Hydroxamic Acid] , thanks.
950 nM
